B1: SFRS1 (parent)
chain: RDIDLKNRRGGPPFAFVEFEDPRD

Variants of: B1
Test method notes: protein stability index of a GFP-peptide fusion (GPS, HEK-293T) (PSI 1-6); higher = more stable;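 also: lentivirally expressed fusions sorted by FACS into six bins by GFP to DsRed ratio, PSI derived from sequencing read proportions per bin multiplied by bin number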
Condition label: c terminus: a fixed tail appended
Endpoint label: protein stability index
I'd appreciate a reply containing only the number, no unit.

Example results:
* I3A | 4.29
* G10E | 4.2
* D2L | 2.62
* F16R | 5
* D21W | 2.95

Need protein stability index of D21A , thanks.
3.1

# repeat for E20R
2.91

# repeat for F19G
4.03

# repeat for V17T
4.75

# repeat for K6W
3.79

# repeat for D2H
3.19

# repeat for P22M
3.76

# repeat for K6G
3.98
